Reference for the values: patent US8541462B2

- Assay Comment: Metabolic stability testing in liver microsomes
- Assay type: in vitro ADME
- Stated Conditions: mixed-gender human liver microsomes, 1 mg microsomal protein/mL, initial concentration 10 μM, 60 minutes at 37° C.; WO 2006/005484-substance 7 = 100%
Measurement Label: Normalized microsomal stability (%)
Give bare numbers, in %.

# example entries with known answers
Molecule	Normalized microsomal stability [%]
CC[C@H](C)[C@H](NC(=O)Cc1ccccc1F)C(=O)N[C@]1(C(=O)N[C@H](c2nc(-c3ccccc3)cs2)[C@@H](C)CC)CCc2[nH]c3c(C(F)(F)F)cccc3c2C1	1580
CCC(C)[C@H](NC(=O)NCc1ccccc1F)C(=O)N[C@]1(C(=O)N[C@H](C(=O)NNc2ccccc2)C(C)CC)CCc2[nH]c3c(C(F)(F)F)cccc3c2C1 (some centres unmarked)	1096
CCOC(=O)c1csc(C(NC(=O)[C@@]2(NC(=O)[C@@H](NC(=O)Cc3ccccc3F)[C@@H](C)CC)CCc3[nH]c4c(C(F)(F)F)cccc4c3C2)[C@@H](C)CC)n1 (stereo in doubt)	1033
CCC(C)[C@H](NC(=O)Cc1ccccc1F)C(=O)N[C@]1(C(=O)N[C@H](C(=O)NN2CCOCC2)C(C)CC)CCc2[nH]c3c(C(F)(F)F)cccc3c2C1 (some centres unmarked)	452

// CCC(C)[C@H](NC(=O)Cc1ccccc1F)C(=O)N[C@]1(C(=O)N[C@H](C(=O)Nc2ccc(OC)c(O)c2)C(C)CC)CCc2[nH]c3c(C(F)(F)F)cccc3c2C1 (some centres unmarked) : Normalized microsomal stability value = 1041
